Molecular target: GABA A receptor alpha-1/beta-1/gamma-2 (Homo sapiens) (UniProt P14867+P18507+P18505)
Assay: Modulation of GABA-induced chloride currents (percentage of GABA EC20 response) against human alpha-1-beta-1-gamma-2 GABA-A receptor subunits expressed in Xenopus laevis oocytes
Type: functional, cell-based
Conditions: Oocyte
Recorded Metric: Max potentiation (%)
Record the value in %, omitting the unit from your answer.

Please review the entries below; each comes with its answer.
{"Compound Structure String": "CC(C)c1cc(Br)cc(C(C)C)c1O", "Max potentiation (%)": 223}
{"Compound Structure String": "CC(C)c1cc(I)cc(C(C)C)c1O", "Max potentiation (%)": 311}
{"Compound Structure String": "CC(C)c1cc(Cl)cc(C(C)C)c1O", "Max potentiation (%)": 205}
{"Compound Structure String": "CC(C)c1cc(C(=O)c2ccccc2)cc(C(C)C)c1O", "Max potentiation (%)": 220}

Continue with the molecule presented below.
Task item: Could you share which Max potentiation value was measured for CC(C)c1cccc(C(C)C)c1O ?
Reply: 296
